Tested on: VCAM-1
testDetails: VCAM-1 assay with ELISA readout (Examples 5-6)
Format: cell-based
conditionParameters: 16 h, TNF added with compound, incubated overnight (approximately 16 hours)
Kindly supply the reported pIC50 values for the records listed here.
Give bare numbers, as −log10 of the molar value.

Recorded pIC50, per entry:
{"compound": "CC(C)(Sc1cc(C(C)(C)C)c(O)c(C(C)(C)C)c1)Sc1cc(C(C)(C)C)c(OCC(O)CNCC(=O)O)c(C(C)(C)C)c1 (stereo not shown)", "pIC50": 4.80}
{"compound": "CC(C)(Sc1cc(C(C)(C)C)c(O)c(C(C)(C)C)c1)Sc1cc(C(C)(C)C)c(OC[C@H]2OC(O)[C@H](O)[C@@H](O)[C@@H]2O)c(C(C)(C)C)c1 (stereo partly shown)", "pIC50": 5.00}
{"compound": "CCOCC(O)COc1c(C(C)(C)C)cc(SC(C)(C)Sc2cc(C(C)(C)C)c(O)c(C(C)(C)C)c2)cc1C(C)(C)C (stereo not shown)", "pIC50": 4.12}

Lab note: next compound to report on.
Input: Consider the compound shown here: CC(C)(Sc1cc(C(C)(C)C)c(O)c(C(C)(C)C)c1)Sc1cc(C(C)(C)C)c(OCC(=O)O)c(C(C)(C)C)c1 What is its recorded pIC50?
Output: 5.00
